For each of the variants below, state its protein stability index.
B1: SPOPL (parent)
chain: YTGRAPNLDKMADNLLAAADKYAL

Variants of: B1
Test: protein stability index of a GFP-peptide fusion (GPS, HEK-293T) (PSI 1-6); higher = more stable;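 further: lentivirally expressed fusions sorted by FACS into six bins by GFP to DsRed ratio, PSI derived from sequencing read proportions per bin multiplied by bin number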
Conditions: c terminus: a fixed tail appended
Reply briefly: the number, and no unit.

Prompt: Requested read-out: protein stability index. Entry: M11Q
Completion: 2.34

Prompt: What does the record list as protein stability index for R4S ?
Completion: 2.77

Prompt: So what does the record say about protein stability index for N14K ?
Completion: 1.73

Prompt: Quick one: protein stability index of L24C ?
Completion: 2.37

Prompt: Could you share which protein stability index value was measured for M11F ?
Completion: 1.73

Prompt: If you can, please state the reported protein stability index value of Y22R .
Completion: 3.05

Prompt: Value lookup for protein stability index; key = P6K
Completion: 1.43

Prompt: What value of protein stability index has been recorded for this entry: L16I
Completion: 2.33

Prompt: Which protein stability index reading was recorded for the variant A17R ?
Completion: 2.05

Prompt: What value of protein stability index has been recorded for this entry: D9R
Completion: 1.2

Prompt: Dear colleague, I am looking for the recorded protein stability index of the following variant: A12H
Completion: 2.33

Prompt: Given the variant Y1H , what is its reported protein stability index?
Completion: 3.8

Prompt: Tell me the measured protein stability index of D13T , please.
Completion: 1.91

Prompt: For L8I , what is its reported protein stability index?
Completion: 1.85

Prompt: So what does the record say about protein stability index for R4Y ?
Completion: 2.02

Prompt: Tell me the measured protein stability index of R4L , please.
Completion: 3.6

Prompt: // lookup protein stability index for K21D
Completion: 2.36

Prompt: What protein stability index value was documented for this variant, L16Q ?
Completion: 2.73

Prompt: Param item = K21H ; retrieve measured protein stability index.
Completion: 1.89

Prompt: Look up protein stability index for this variant: D20N
Completion: 1.3

Prompt: So what's the measured protein stability index for this one? A19G
Completion: 2.23

Prompt: # get_value(readout='protein stability index', item= A23V )
Completion: 1.54

Prompt: # input variant: A12R ; wanted: its protein stability index
Completion: 1.56

Prompt: Requested read-out: protein stability index. Entry: T2E
Completion: 3.81

Prompt: Give the measured protein stability index of K21S .
Completion: 1.92

Prompt: What value of protein stability index has been recorded for this entry: A23H
Completion: 1.78

Prompt: Form field: reported protein stability index of M11T
Completion: 2.62

Prompt: # input variant: K10V ; wanted: its protein stability index
Completion: 1.75

Prompt: What does the record list as protein stability index for A12I ?
Completion: 2.87

Prompt: GET /values?readout=protein stability index&item= D20F
Completion: 1.39

Prompt: What value of protein stability index has been recorded for this entry: A18G
Completion: 2.61

Prompt: What does the data say about its protein stability index? Entry: R4I
Completion: 1.96

Prompt: Look up protein stability index: Y1D
Completion: 4.63

Prompt: Would you kindly share the measured protein stability index for A18S ?
Completion: 2.18

Prompt: Value lookup for protein stability index; key = A19K
Completion: 1.64

Prompt: So what does the record say about protein stability index for P6V ?
Completion: 2.11

Prompt: Param item = L15Q ; retrieve measured protein stability index.
Completion: 2.96

Prompt: I have this variant here, L24S , and I need its recorded protein stability index.
Completion: 2.73

Prompt: Item under review: P6W . Reported protein stability index?
Completion: 5

Prompt: What value of protein stability index has been reported for the following variant? A23T
Completion: 2.71

Prompt: Field request: protein stability index | item: A23D
Completion: 2.45

Prompt: Entry Y22G has what protein stability index?
Completion: 3.2

Prompt: What does the data say about its protein stability index? Entry: K21W
Completion: 2.02

Prompt: Given L16D , state its recorded protein stability index.
Completion: 3.83

Prompt: Please look up its protein stability index: L8C
Completion: 2.28

Prompt: Record request: protein stability index value, item L16K
Completion: 3.18

Prompt: Item under review: N7A . Reported protein stability index?
Completion: 1.98

Prompt: Any idea what protein stability index was measured for T2P ?
Completion: 2.75

Prompt: Give the measured protein stability index of M11C .
Completion: 1.55

Prompt: Recorded protein stability index of L24M , please.
Completion: 2.33

Prompt: I am curious: what protein stability index value has been reported for L16G ?
Completion: 2.94

Prompt: Would you kindly share the measured protein stability index for K10H ?
Completion: 1.97

Prompt: Could you tell me which protein stability index is on file for N7R ?
Completion: 1.48

Prompt: Which protein stability index is listed for K10F ?
Completion: 1.68

Prompt: Quick check: protein stability index of K10I ?
Completion: 1.49

Prompt: Value lookup for protein stability index; key = P6N
Completion: 2.49

Prompt: Please report the recorded protein stability index for A12S .
Completion: 2.2

Prompt: Data request, read-out protein stability index, for A23Q
Completion: 2.4

Prompt: Can you share its protein stability index? I mean this variant: A18T
Completion: 1.99

Prompt: # protein stability index lookup, item N14H
Completion: 1.94

Prompt: I have this variant here, D13A , and I need its recorded protein stability index.
Completion: 1.34

Prompt: Which measured protein stability index value corresponds to L24W ?
Completion: 1.86

Prompt: Fill in: protein stability index of L8Q is ___
Completion: 2.58

Prompt: Reported protein stability index for Y22S : what is it?
Completion: 3.66

Prompt: Form field: reported protein stability index of L8G
Completion: 2.81

Prompt: Which protein stability index value is on record for M11L ?
Completion: 2.44

Prompt: I have this variant here, D9N , and I need its recorded protein stability index.
Completion: 1.65

Prompt: # protein stability index lookup, item R4K
Completion: 2.41

Prompt: Item under review: Y1W . Reported protein stability index?
Completion: 2.94

Prompt: What protein stability index value was documented for this variant, A23M ?
Completion: 2.18

Prompt: Quick check: protein stability index of D20V ?
Completion: 3.92

Prompt: # protein stability index lookup, item L8V
Completion: 3.88

Prompt: Quick one: protein stability index for G3A ?
Completion: 2.17

Prompt: Would you kindly share the measured protein stability index for A23I ?
Completion: 1.65

Prompt: Using the record for K21V , report its protein stability index.
Completion: 2.53

Prompt: Requested field: protein stability index. Item: D13H
Completion: 1.75

Prompt: For the variant shown here, N7G , give the reported protein stability index.
Completion: 1.89

Prompt: Tell me the measured protein stability index of A18E , please.
Completion: 2.42

Prompt: Looking for the measured protein stability index of A19T , can you help?
Completion: 1.99

Prompt: Would you mind telling me what protein stability index value was observed for G3M ?
Completion: 2.68

Prompt: Quick check: protein stability index of A23W ?
Completion: 1.22

Prompt: Suppose we examine the variant Y1E ; what protein stability index value has been reported?
Completion: 4.07

Prompt: Bench note: what protein stability index did A19W show?
Completion: 1.37

Prompt: Which protein stability index value belongs to K10Y ?
Completion: 1.61

Prompt: I am curious: what protein stability index value has been reported for D13R ?
Completion: 2.66

Prompt: Can you look up the measured protein stability index of R4D for me?
Completion: 3

Prompt: Give the measured protein stability index of Y22K .
Completion: 3.07

Prompt: Request the reported protein stability index associated with Y1K
Completion: 3.61

Prompt: Form field: reported protein stability index of A19D
Completion: 2.76

Prompt: Reported protein stability index for L16V : what is it?
Completion: 2.2

Prompt: Look up protein stability index for this variant: M11G
Completion: 1.62
